System: Danio rerio Tg(wt1b:EGFP) embryo, pronephros
test: glomerular width (mean of left and right), fold change vs DMSO control; higher = wider glomerulus
condition-set: 25 µM; exposure: 24-48 hpf
Answer each item with its documented glomerular width.
A bare number is all that is needed in reply.

Field glomerular width (entry O=C(O)Cc1ccc(-c2ccccc2)cc1 ) reads 0.627

Field glomerular width (entry CC(=O)NS(=O)(=O)c1ccc(N)cc1 [Sulfacetamide sodic hydrate] ) reads 1.05

Field glomerular width (entry NC[C@H]1CC[C@H](C(=O)O)CC1 ) reads 0.977

Field glomerular width (entry CC1=C(/C=C/C(C)=C/C=C/C(C)=C/C(=O)O)C(C)(C)CCC1 ) reads 0.639

Field glomerular width (entry CN(C)CCOC(c1ccccc1)c1ccccc1.Cn1c(=O)c2[nH]c(Cl)nc2n(C)c1=O [Dimenhydrinate] ) reads 1.05

Field glomerular width (entry CC(=O)CCCCn1c(=O)c2c(ncn2C)n(C)c1=O ) reads 0.971

Field glomerular width (entry CNC(=O)c1c(I)c(C(=O)NCC(=O)Nc2c(I)c(C(=O)O)c(I)c(C(=O)NCCO)c2I)c(I)c(N(C)C(C)=O)c1I ) reads 1.03

Field glomerular width (entry CCOc1ccc2nc(S(N)(=O)=O)sc2c1 [Ethoxzolamide] ) reads 1.08

Field glomerular width (entry NS(=O)(=O)c1cc(Cl)c(Cl)c(S(N)(=O)=O)c1 [Dichlorphenamide] ) reads 1.15
